# System: ATP;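 note: ATP exposure 15 min at 22 °C before imaging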
# METHOD SUMMARY: switch fluorescence ratio, 500 uM ATP over buffer (Cy3 cluster intensity, sum of 5 cycles each) (fold (ratio)); higher = stronger signal-on switching upon ATP binding; sequences stand for … in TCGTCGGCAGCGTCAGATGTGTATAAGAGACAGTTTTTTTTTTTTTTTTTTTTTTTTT…TC
# EXPERIMENTAL PARAMETERS: aptamer strand: ATP DNA aptamer (quencher-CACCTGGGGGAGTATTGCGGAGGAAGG + anchor), 100 nM annealed; ATP concentration: 500 uM
The following sequences are listed with their measured switch fluorescence ratio values.
QUANTITY MEASURED: switch fluorescence ratio

>>> obs_value("TTTGGTATAG")
0.975
>>> obs_value("GGGGGGACGT")
1.02
>>> obs_value("GCTCTGTGTT")
0.993
>>> obs_value("TTAATCGCTC")
1.02
>>> obs_value("CCGTAACGGA")
0.972
>>> obs_value("TACGGGGGTT")
0.994
>>> obs_value("ATAATTTTCA")
1.01
